assayProcedure: Drug-drug interaction study: bardoxolone methyl alone and with itraconazole in healthy volunteers
measurementParameters: human, plasma, po, 10 mg, Cmax, GM, Period 1: single oral 10 mg bardoxolone methyl alone, fasted, plasma, n = 16
assayMetric: Cmax (ng/mL)
Give bare numbers, in ng/mL.

Ask: Any idea what Cmax was measured for COC(=O)[C@]12CCC(C)(C)C[C@H]1[C@H]1C(=O)C=C3[C@@]4(C)C=C(C#N)C(=O)C(C)(C)[C@@H]4CC[C@@]3(C)[C@]1(C)CC2 [Bardoxolone methyl] ?
Reply: 2.43

====

assayProcedure: Drug-drug interaction study: bardoxolone methyl alone and with itraconazole in healthy volunteers
measurementParameters: human, plasma, po, 10 mg, AUC0-∞, GM, Period 1: single oral 10 mg bardoxolone methyl alone, fasted, plasma, n = 16
assayMetric: AUC(0-inf) (ng·h/mL)
One number for each entry, in ng·h/mL.

Ask: Any idea what AUC(0-inf) was measured for COC(=O)[C@]12CCC(C)(C)C[C@H]1[C@H]1C(=O)C=C3[C@@]4(C)C=C(C#N)C(=O)C(C)(C)[C@@H]4CC[C@@]3(C)[C@]1(C)CC2 [Bardoxolone methyl] ?
Reply: 27.8

These entries and their values trace back to patent US20240293351A1.
